NanoBRET Fold Response reference
assay_system: NPBWR2 (Homo sapiens)
Construct: purchased Promega (in-house HiBiT-GPCR construct library, NanoBRET)
Sequence (P48146 whole entry): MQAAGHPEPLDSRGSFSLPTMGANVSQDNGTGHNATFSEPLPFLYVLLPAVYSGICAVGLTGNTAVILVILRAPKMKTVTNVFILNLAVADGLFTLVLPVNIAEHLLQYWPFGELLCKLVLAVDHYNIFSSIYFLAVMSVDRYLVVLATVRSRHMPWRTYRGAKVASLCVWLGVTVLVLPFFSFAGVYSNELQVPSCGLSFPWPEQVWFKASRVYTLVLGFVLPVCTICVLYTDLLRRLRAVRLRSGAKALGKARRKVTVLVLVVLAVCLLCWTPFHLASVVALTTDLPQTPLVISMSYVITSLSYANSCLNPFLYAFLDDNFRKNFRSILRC
method_notes: NanoBRET screen HiBiT-NPBWR2 in HEK293
Assay type: binding
measurement_context: NPBWR2; tracer 1μM
Protocol: Each tracer candidate was screened across the entire library of HiBiT-GPCR constructs using NanoBRET as the detection modality. As depicted in Figure 4A, the specificity of interactions was evaluated through decrease in BRET due to competitive displacement of a bound tracer by excess parental compound. Each tracer was analyzed for binding to each HiBiT-GPCR fusion in the absence and in the presence of competing parental compound. […]

Guide cases for NanoBRET Fold Response, answers given:
>>> observed_value("N#CN=C(NCCCOc1cccc(CN2CCCCC2)c1)NCCNC(=O)CCOCCOCCOCCOCCNC(=O)CCc1ccc2n1[B-](F)(F)[N+]1=C(c3ccc[nH]3)C=CC1=C2")
0.92
>>> observed_value("CCCn1c(=O)c2[nH]c(-c3ccc(OCC(=O)NCCNC(=O)CCOCCNC(=O)c4ccc(CNC(=O)CCc5ccc6n5[B-](F)(F)[N+]5=C(c7ccc[nH]7)C=CC5=C6)cc4)cc3)nc2n(CCC)c1=O")
0.99
>>> observed_value("Cc1nc2n(c(=O)c1CCN1CCC(c3noc4cc(F)ccc34)CC1)CCCC2OC(=O)NCCOCCOCCOCCOCCNC(=O)CCc1ccc2n1[B-](F)(F)[N+]1=C(c3ccc[nH]3)C=CC1=C2 (stereo not shown)")
1.00

Now turn to the next compound.
**Query** Hello, please tell me recorded NanoBRET Fold Response for this one: `Cc1cc2c(s1)Nc1ccccc1N=C2N1CCN(CCCNC(=O)CCOCCOCCOCCOCCNC(=O)CCc2ccc3n2[B-](F)(F)[N+]2=C(c4ccc[nH]4)C=CC2=C3)CC1`
**Result** 1.02

----------
assay_system: ADRA1B (Homo sapiens, UniProt P35368)
Construct: purchased Promega (in-house HiBiT-GPCR construct library, NanoBRET)
Sequence (P35368 whole entry): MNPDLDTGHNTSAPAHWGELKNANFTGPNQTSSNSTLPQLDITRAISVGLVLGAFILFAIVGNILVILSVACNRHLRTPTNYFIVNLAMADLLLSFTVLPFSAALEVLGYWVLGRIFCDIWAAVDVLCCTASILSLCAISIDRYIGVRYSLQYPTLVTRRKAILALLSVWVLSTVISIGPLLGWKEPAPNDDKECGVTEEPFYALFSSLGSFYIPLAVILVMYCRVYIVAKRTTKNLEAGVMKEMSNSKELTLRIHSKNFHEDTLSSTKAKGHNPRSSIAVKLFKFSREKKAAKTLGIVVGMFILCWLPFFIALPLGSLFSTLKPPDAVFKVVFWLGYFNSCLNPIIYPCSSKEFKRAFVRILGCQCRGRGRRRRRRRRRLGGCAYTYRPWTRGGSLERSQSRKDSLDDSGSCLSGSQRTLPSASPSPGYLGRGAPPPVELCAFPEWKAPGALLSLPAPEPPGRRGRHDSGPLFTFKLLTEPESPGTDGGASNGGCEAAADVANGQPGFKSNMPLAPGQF
method_notes: NanoBRET screen HiBiT-ADRA1B in HEK293
Type: binding
measurement_context: ADRA1B; tracer 1μM
Parameter: NanoBRET Fold Response. Scope: all listed entries.
Give the figure only, with no unit attached.

>>> observed_value("O=C(CCc1ccc2n1[B-](F)(F)[N+]1=C(c3ccc[nH]3)C=CC1=C2)NCc1ccc(C(=O)NCCOCCC(=O)N[C@@H]2CC[C@@]3(O)[C@H]4Cc5ccc(O)c6c5[C@@]3(CCN4CC3CC3)[C@H]2O6)cc1 [Naltrexone-3-NB590]")
0.79
>>> observed_value("CCCn1c(=O)c2[nH]c(-c3ccc(OCC(=O)NCCNC(=O)CCOCCNC(=O)c4ccc(CNC(=O)CCc5ccc6n5[B-](F)(F)[N+]5=C(c7ccc[nH]7)C=CC5=C6)cc4)cc3)nc2n(CCC)c1=O [XAC-3-NB590]")
1.17

Field: next compound
**Query** Tell me its NanoBRET Fold Response given Cc1cc2c(s1)Nc1ccccc1N=C2N1CCN(CCCNC(=O)CCOCCOCCOCCOCCNC(=O)CCc2ccc3n2[B-](F)(F)[N+]2=C(c4ccc[nH]4)C=CC2=C3)CC1 [Olanzapine-a-2-NB590] as the entry.
**Result** 1.98

----------
assay_system: NMUR2 (Homo sapiens, UniProt Q9GZQ4)
Construct: purchased Promega (in-house HiBiT-GPCR construct library, NanoBRET)
Sequence (Q9GZQ4 whole entry): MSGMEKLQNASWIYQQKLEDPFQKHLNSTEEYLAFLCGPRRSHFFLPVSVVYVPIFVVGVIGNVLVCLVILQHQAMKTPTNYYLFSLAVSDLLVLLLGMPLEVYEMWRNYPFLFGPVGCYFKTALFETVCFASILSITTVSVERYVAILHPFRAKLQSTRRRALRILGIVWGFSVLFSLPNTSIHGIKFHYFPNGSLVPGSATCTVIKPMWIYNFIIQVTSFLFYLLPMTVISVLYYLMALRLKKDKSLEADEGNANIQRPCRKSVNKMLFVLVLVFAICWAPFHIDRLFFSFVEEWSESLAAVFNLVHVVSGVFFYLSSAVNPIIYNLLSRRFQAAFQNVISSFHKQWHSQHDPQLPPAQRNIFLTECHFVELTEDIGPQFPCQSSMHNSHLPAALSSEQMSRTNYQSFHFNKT
method_notes: NanoBRET screen HiBiT-NMUR2 in HEK293
Format: binding
measurement_context: NMUR2; tracer 1μM
Overview of recorded NanoBRET Fold Response for various compounds

>>> observed_value("O=C(CCc1ccc2n1[B-](F)(F)[N+]1=C(c3ccc[nH]3)C=CC1=C2)NCc1ccc(C(=O)NCCOCCC(=O)N[C@@H]2CC[C@@]3(O)[C@H]4Cc5ccc(O)c6c5[C@@]3(CCN4CC3CC3)[C@H]2O6)cc1 [Naltrexone-3-NB590]")
0.84
>>> observed_value("CCCn1c(=O)c2[nH]c(-c3ccc(OCC(=O)NCCNC(=O)CCOCCNC(=O)c4ccc(CNC(=O)CCc5ccc6n5[B-](F)(F)[N+]5=C(c7ccc[nH]7)C=CC5=C6)cc4)cc3)nc2n(CCC)c1=O")
0.89

Turning now to a further record.
**Query** Provide NanoBRET Fold Response value for the following compound: Cc1nc2n(c(=O)c1CCN1CCC(c3noc4cc(F)ccc34)CC1)CCCC2OC(=O)NCCOCCOCCOCCOCCNC(=O)CCc1ccc2n1[B-](F)(F)[N+]1=C(c3ccc[nH]3)C=CC1=C2 (stereo not drawn)
**Result** 1.05

----------
assay_system: F2RL2 (Homo sapiens)
Construct: purchased Promega (in-house HiBiT-GPCR construct library, NanoBRET)
Sequence (O00254 22-374): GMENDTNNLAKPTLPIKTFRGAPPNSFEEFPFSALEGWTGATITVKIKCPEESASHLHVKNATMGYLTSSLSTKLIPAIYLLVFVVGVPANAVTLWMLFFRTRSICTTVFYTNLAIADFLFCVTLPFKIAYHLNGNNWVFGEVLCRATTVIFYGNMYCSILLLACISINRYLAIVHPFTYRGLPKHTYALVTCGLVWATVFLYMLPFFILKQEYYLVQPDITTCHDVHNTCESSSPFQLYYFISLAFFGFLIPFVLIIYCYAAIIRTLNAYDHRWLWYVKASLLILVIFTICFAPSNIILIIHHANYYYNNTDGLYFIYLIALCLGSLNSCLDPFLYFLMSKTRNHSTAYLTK
method_notes: NanoBRET screen HiBiT-F2RL2 in HEK293
Format: binding
measurement_context: F2RL2; tracer 0.1μM
measured_metric: NanoBRET Fold Response
Just the number, please, no unit attached.

>>> observed_value("CC(C)N(CC[C@H](c1ccccc1)c1cc(CCNC(=O)CCOCCOCCOCCOCCNC(=O)CCc2ccc3n2[B-](F)(F)[N+]2=C(c4ccc[nH]4)C=CC2=C3)ccc1O)C(C)C [Tolterodine-2-NB590]")
1.02
>>> observed_value("CC(C)N(CC[C@H](c1ccccc1)c1cc(CCNC(=O)c2ccc(CNC(=O)CCc3ccc4n3[B-](F)(F)[N+]3=C(c5ccc[nH]5)C=CC3=C4)cc2)ccc1O)C(C)C [Tolterodine-BZ-NB590]")
1.01
>>> observed_value("O=C(CCOCCOCCOCCOCCNC(=O)CCc1ccc2n1[B-](F)(F)[N+]1=C(c3ccc[nH]3)C=CC1=C2)NCCCN1CCN(C2=Nc3ccccc3Oc3ccc(Cl)cc32)CC1 [Loxapine-a-2-NB590]")
1.03
>>> observed_value("O=C(CCc1ccc2n1[B-](F)(F)[N+]1=C(c3ccc[nH]3)C=CC1=C2)NCCOCCOCCNC(=O)OCCOCCN1CCN(C2=Nc3ccccc3Sc3ccccc32)CC1 [Quetiapine-a-2-NB590]")
1.06

Attention now turns to another entry.
**Query** State NanoBRET Fold Response (F2RL2 (Homo sapiens)) of COc1ccccc1N1CCN(CCCCN2C(=O)c3ccc(CNC(=O)CCOCCNC(=O)c4ccc(CNC(=O)CCc5ccc6n5[B-](F)(F)[N+]5=C(c7ccc[nH]7)C=CC5=C6)cc4)cc3C2=O)CC1 [NAN-190-3-NB590] .
**Result** 1.10

----------
assay_system: GALR1 (Homo sapiens, UniProt P47211)
Construct: purchased Promega (in-house HiBiT-GPCR construct library, NanoBRET)
Sequence (P47211 1-349): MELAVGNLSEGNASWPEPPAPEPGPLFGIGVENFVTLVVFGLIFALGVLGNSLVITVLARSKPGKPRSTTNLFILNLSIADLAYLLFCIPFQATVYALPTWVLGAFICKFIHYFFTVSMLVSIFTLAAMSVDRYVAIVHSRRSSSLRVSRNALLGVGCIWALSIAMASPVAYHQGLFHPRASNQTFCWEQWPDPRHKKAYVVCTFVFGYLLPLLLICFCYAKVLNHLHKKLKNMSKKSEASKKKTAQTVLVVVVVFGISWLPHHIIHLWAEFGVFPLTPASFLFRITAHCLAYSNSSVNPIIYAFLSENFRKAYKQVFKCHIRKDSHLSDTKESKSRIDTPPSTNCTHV
method_notes: NanoBRET screen HiBiT-GALR1 in HEK293
Type: binding
measurement_context: GALR1; tracer 0.1μM
Protocol: Each tracer candidate was screened across the entire library of HiBiT-GPCR constructs using NanoBRET as the detection modality. As depicted in Figure 4A, the specificity of interactions was evaluated through decrease in BRET due to competitive displacement of a bound tracer by excess parental compound. Each tracer was analyzed for binding to each HiBiT-GPCR fusion in the absence and in the presence of competing parental compound. […]
Measured NanoBRET Fold Response by item
Returns: the value as a bare number; no unit string appended.

Below are worked cases with known answers.
>>> observed_value("CCCn1c(=O)c2[nH]c(-c3ccc(OCC(=O)NCCNC(=O)CCOCCNC(=O)c4ccc(CNC(=O)CCc5ccc6n5[B-](F)(F)[N+]5=C(c7ccc[nH]7)C=CC5=C6)cc4)cc3)nc2n(CCC)c1=O")
1.02
>>> observed_value("Cc1nc2n(c(=O)c1CCN1CCC(c3noc4cc(F)ccc34)CC1)CCCC2OC(=O)NCCOCCOCCOCCOCCNC(=O)CCc1ccc2n1[B-](F)(F)[N+]1=C(c3ccc[nH]3)C=CC1=C2 (stereo not drawn)")
1.00

Turning now to a further compound:
**Query** Give NanoBRET Fold Response only, for `COc1ccccc1N1CCN(CCCCN2C(=O)c3ccc(CNC(=O)CCOCCOCCOCCOCCNC(=O)CCc4ccc5n4[B-](F)(F)[N+]4=C(c6ccc[nH]6)C=CC4=C5)cc3C2=O)CC1` , using GALR1 (Homo sapiens, UniProt P47211) data.
**Result** 1.02

----------
assay_system: CCR9 (Homo sapiens, UniProt P51686)
Construct: purchased Promega (in-house HiBiT-GPCR construct library, NanoBRET)
Sequence (P51686 whole entry): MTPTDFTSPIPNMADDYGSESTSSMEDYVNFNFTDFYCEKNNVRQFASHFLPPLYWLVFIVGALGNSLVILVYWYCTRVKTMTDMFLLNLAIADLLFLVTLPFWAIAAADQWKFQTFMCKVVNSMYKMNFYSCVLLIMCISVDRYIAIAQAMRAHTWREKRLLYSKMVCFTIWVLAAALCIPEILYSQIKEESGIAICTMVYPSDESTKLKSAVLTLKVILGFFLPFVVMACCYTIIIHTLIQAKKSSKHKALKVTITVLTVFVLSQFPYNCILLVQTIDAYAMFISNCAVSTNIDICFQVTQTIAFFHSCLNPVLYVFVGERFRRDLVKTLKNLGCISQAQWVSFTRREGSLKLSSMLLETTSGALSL
method_notes: NanoBRET screen HiBiT-CCR9 in HEK293
Format: binding
measurement_context: CCR9; tracer 1μM
measured_metric: NanoBRET Fold Response

Study these solved cases before continuing.
>>> observed_value("COc1ccccc1N1CCN(CCCCN2C(=O)c3ccc(CNC(=O)CCOCCNC(=O)c4ccc(CNC(=O)CCc5ccc6n5[B-](F)(F)[N+]5=C(c7ccc[nH]7)C=CC5=C6)cc4)cc3C2=O)CC1")
1.04
>>> observed_value("O=C(CCc1ccc2n1[B-](F)(F)[N+]1=C(c3ccc[nH]3)C=CC1=C2)NCCOCCOCCNC(=O)OCCOCCN1CCN(C2=Nc3ccccc3Sc3ccccc32)CC1")
0.96
>>> observed_value("N#CN=C(NCCCOc1cccc(CN2CCCCC2)c1)NCCNC(=O)CCOCCOCCOCCOCCNC(=O)CCc1ccc2n1[B-](F)(F)[N+]1=C(c3ccc[nH]3)C=CC1=C2")
1.11

**Query** Would you please give the reported NanoBRET Fold Response of `CCCn1c(=O)c2[nH]c(-c3ccc(OCC(=O)NCCNC(=O)CCOCCNC(=O)c4ccc(CNC(=O)CCc5ccc6n5[B-](F)(F)[N+]5=C(c7ccc[nH]7)C=CC5=C6)cc4)cc3)nc2n(CCC)c1=O` with CCR9 (Homo sapiens, UniProt P51686)?
**Result** 1.57
